A collection of compounds and their measured composite z-score
- TARGET OR SYSTEM: Fibroblast growth factor 2 (Homo sapiens)
- ASSAY PROTOCOL: FGF2 binders on small-molecule microarrays, primary screen, biochemical, small-molecule microarray, 635/667 nm fluorescence (AID 1133)
- CONDITION DETAILS: small-molecule microarray binding, FGF2, fluorescence 635/667; higher = more signal
Respond using a number only.

COMPOUND	TARGET OR SYSTEM	RECORDED MEASUREMENT
NCCCCCNC(=O)[C@@H]1C[C@@H]2C(=O)N3CCC[C@H]3C(=O)N2[C@@H]1c1ccc(O)cc1	Fibroblast growth factor 2 (Homo sapiens)	0.428
Cc1ccccc1C(O)C1C=CC2C(=O)N(c3ccccc3)C(=O)C2N1Nc1ccc([N+](=O)[O-])cc1 (configuration not stated)	Fibroblast growth factor 2 (Homo sapiens)	1.06
CC(C)=CCCC(C)=CC(O)C1C=CC2C(=O)N(c3ccccc3)C(=O)C2N1Nc1ccccc1F (configuration not stated)	Fibroblast growth factor 2 (Homo sapiens)	-0.617
C=CCN1C(=O)[C@]2(O[C@H](CCO)[C@@H]([Si](C)(C)c3ccc(OC)cc3)[C@@H]2C)c2cc(N3C(=O)COc4ccccc43)ccc21	Fibroblast growth factor 2 (Homo sapiens)	0.405
C=C(C)[C@@H]1CC=C(C(O)C2C=CC3C(=O)N(c4ccccc4)C(=O)C3N2Nc2ccc(C#N)cc2)CC1 (some centres not stated)	Fibroblast growth factor 2 (Homo sapiens)	0.13

## Task What reported composite z-score corresponds to CC(C)[C@H]1NC(=O)[C@@]23C(=O)N[C@@H](Cc4ccccc4)C2[C@H](C)[C@@]2(C)O[C@H]2C3/C=C/CCC/C=C/CNC(=O)[C@H](Cc2ccccc2)NC1=O (some centres not stated) on Fibroblast growth factor 2 (Homo sapiens)?
## Result -0.0659

## Task Try CN1C(=O)C2C=CC(C(O)c3cc(C(F)(F)F)cc(C(F)(F)F)c3)N(NC(=O)OC(C)(C)C)C2C1=O (configuration not stated) next.
## Result -0.396

* * *

- ASSAY PROTOCOL: inhibitors of hydroxyurea-induced Chk1 phosphorylation, primary screen, imaging, HeLa, phospho-Chk1 antibody, percent positive cells (AID 1186)
- CONDITION DETAILS: hydroxyurea-induced phospho-Chk1 immunofluorescence imaging, higher = more signal
Active and inactive are the calls of the source. The rule behind the calls is not given here.
A collection of molecules and their measured z-score

Would you please look over these solved cases?
MOLECULE	TEST READOUT	RECORDED MEASUREMENT
COc1cc2c(cc1O)C(c1cccs1)N(Cc1sc3ccccc3c1Cl)CC2 (stereo unspecified)	z-score	0.326 (inactive)
CC(C)C[C@@H]1NC(=O)[C@H]2C[C@@H](C(=O)NCCCCCN)[C@@H](c3cccc(OCCO)c3)N2C1=O	z-score	-0.242 (inactive)
O=C1O[C@H](c2ccccc2)[C@H](c2ccccc2)N2[C@H]1[C@@H](C(=O)N1CCCCCCC1)[C@]1(C(=O)Nc3ccc(C#CC4(O)CCCCCC4)cc31)[C@H]2c1ccc(O)cc1	z-score	-0.216 (inactive)
C=C(/C(=C/C[C@@H](OC(C)=O)c1ccc(CO)o1)c1cc(C(=O)OC)ccc1OC)C(C)C	z-score	0.623 (inactive)

## Task Return reported z-score; argument: CN1C=C(C(=O)OCCS(C)(=O)=O)C(C(=O)OCCS(C)(=O)=O)=CC(c2ccc(CO)cc2)=CC1c1cccs1 (stereo unspecified)
## Result -0.163 (inactive)

## Task Try COc1cc(NN2C(C(O)c3ccccc3)C=CC3C(=O)N(C)C(=O)C32)cc(OC)c1OC (stereo unspecified) next.
## Result -0.36 (inactive)

## Task Try [N-]=[N+]=Nc1ccccc1C[C@@]1(C(=O)O)N=C(c2ccc(OCCCO)cc2)O[C@@H]1c1ccccc1N=[N+]=[N-] next.
## Result -0.267 (inactive)

## Task Try CC(C)CNC(=O)[C@@]1(c2ccc([N+](=O)[O-])cc2)CC(=O)N(C2CCCCC2)[C@@H]1c1ccc(CO)cc1 next.
## Result 0.0803 (inactive)

## Task Try CN(C)CCCCNC(=O)[C@H]1C[C@H]2C(=O)N[C@@H](CCCC[N+](C)(C)C)C(=O)N2[C@H]1c1ccc(O)cc1 next.
## Result -1.31 (inactive)

## Task Try O=C1NC(=O)C2C1C=CC(C(O)c1ccccn1)N2Nc1ccc(Cl)cc1Cl (stereo unspecified) next.
## Result -0.133 (inactive)

## Task Try C=CCNC(=O)[C@@H]1[C@H]2C(=O)O[C@H](c3ccccc3)[C@H](c3ccccc3)N2[C@H](c2ccc(O)cc2)[C@@]12C(=O)N(C(=O)OCCOC)c1ccc(C#CCCO)cc12 next.
## Result 0.116 (inactive)

## Task Try NC(=O)[C@@H]1[C@H]2C(=O)O[C@H](c3ccccc3)[C@H](c3ccccc3)N2[C@H](c2ccc(OCCO)cc2)[C@@]12C(=O)Nc1ccc(C#CCCO)cc12 next.
## Result -0.504 (inactive)

## Task Try O=c1cccc(-c2ccc(F)cc2)o1 next.
## Result 0.454 (inactive)

## Task Try Cc1cccc([C@H]2C[C@H]3C(I)=C[C@@H]2C(=O)[C@]32CO2)c1 next.
## Result -0.33 (inactive)

## Task Try COc1cc(CO)cc(I)c1O[C@H]1C=C(C(=O)NCCO)C[C@@H](NCC2CCCCC2)[C@@H]1O next.
## Result -1.23 (inactive)

## Task Try CCCCC(=O)N(CCN1CCOCC1)[C@@H]1CC(C(=O)NCCO)=C[C@H](Oc2c(I)cc(CO)cc2OC)[C@H]1O next.
## Result -0.686 (inactive)

* * *

A collection of compounds and their measured composite z-score
- ASSAY PROTOCOL: binders of probe aFSTL3 on microarray, primary screen, stem cell growth factor project, biochemical, small-molecule microarray, fluorescence 635/667 (AID 1064);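 also: measures binding of the biotinylated anti-FSTL3 antibody to printed compounds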
- CONDITION DETAILS: higher = more signal
Respond using a number only.

Would you please look over these solved cases?
COMPOUND	composite z-score
CN(C)C(=O)[C@@]1(Cc2ccccc2)COC(c2ccc(OCCCO)cc2)=N1	0.862
COC(=O)C(CC#Cc1ccc2c(c1)[C@]1(C(=O)N2)[C@H](c2ccc(OCCO)cc2)N2[C@H](c3ccccc3)[C@H](c3ccccc3)OC(=O)[C@H]2[C@@H]1C(=O)N1CCN(c2ncccn2)CC1)C(=O)OC	-0.505
CS(=O)(=O)CCOC(=O)C1=CC(CCCO)=CC(C2CC2)N(Cc2cccc(OC(F)(F)F)c2)C=C1C(=O)OCCS(C)(=O)=O (configuration not stated)	-0.527
C=C(CCCC)C(=O)CC[C@H](OC(=O)c1ccccc1-c1ccccc1C(=O)O)c1ccccc1OCCO	-0.0134

## Task Return reported composite z-score; argument: O=C1O[C@H](c2ccccc2)[C@H](c2ccccc2)N2[C@H]1[C@@H](C(=O)N1CCCCCCC1)[C@]1(C(=O)Nc3ccc(C#CC4(O)CCCCCC4)cc31)[C@H]2c1ccc(O)cc1
## Result 3.63

## Task Try COCCOC(=O)N1C(=O)[C@@]2(c3ccccc31)[C@H](c1ccccc1OCCO)N1[C@H](c3ccccc3)[C@H](c3ccccc3)OC(=O)[C@H]1[C@@H]2C(N)=O next.
## Result -0.299

## Task Try C=CCNC(=O)[C@@H]1[C@H]2C(=O)O[C@H](c3ccccc3)[C@H](c3ccccc3)N2[C@H](c2ccc(O)cc2)[C@@]12C(=O)N(C(=O)OCCOC)c1ccc(C#CCCO)cc12 next.
## Result -0.0125

* * *

- ASSAY PROTOCOL: basal MM1S mitochondrial membrane potential changes, profiling panel, cell-based, JC-1 fluorescence, 24 h, 100 nL compound (AID 1170); also: test concentration not given here
- CONDITION DETAILS: higher = more signal
TEST READOUT: z-score

Would you please look over these solved cases?
> print(dat)
                                   compound  recorded.measurement
1                       Nc1cc(Br)ccc1C(=O)O                  1.54
2  COCCCNC(=O)[C@@]1(c2ccc([N+](=O)[O-])cc2)CC(=O)N(C(C)C)[C@@H]1c1ccc(CO)cc1                 -1.28
3  C=C(/C(=C/C[C@@H](OC(C)=O)c1ccc(CO)o1)c1cc(C(=O)OC)ccc1OC)C(C)C                  -1.2
4  Cc1ccc(N2C(=O)c3ccccc3[C@](C)(C(=O)NCc3ccccc3)[C@@H]2c2ccc(CO)cc2)nc1                  1.46
5  COc1ccc([Si](C)(C)[C@H]2[C@H](CCO)O[C@@]3(C(=O)N(Cc4ccc(N5C(=O)c6ccccc6Oc6ccccc65)cc4)c4ccccc43)[C@@H]2C)cc1                 -2.04

## Task Return reported z-score; argument: CO[C@H]1O[C@H](CO)[C@@H](OC(=O)Nc2cccc(F)c2)[C@H](OC(=O)Nc2ccccc2-c2ccccc2)[C@H]1OC(=O)Nc1ccccc1-c1ccccc1
## Result -1.88

## Task Try CC(C)=CCCC(C)=CC(O)C1C=CC2C(=O)N(c3ccccc3)C(=O)C2N1Nc1ccccc1F (configuration not stated) next.
## Result -0.426

## Task Try CC(=O)NCCCC[C@@H]1NC(=O)[C@@H]2C[C@H](C(=O)NCCCCCCN)[C@H](c3cccc(OCCO)c3)N2C1=O next.
## Result 0.0193

FYI, the data here is from PubChem BioAssay.
